- tested.target: CDK7/cyclinH/MAT1 trimeric complex (Homo sapiens, UniProt P50613)
- Sequence (P50613 whole entry): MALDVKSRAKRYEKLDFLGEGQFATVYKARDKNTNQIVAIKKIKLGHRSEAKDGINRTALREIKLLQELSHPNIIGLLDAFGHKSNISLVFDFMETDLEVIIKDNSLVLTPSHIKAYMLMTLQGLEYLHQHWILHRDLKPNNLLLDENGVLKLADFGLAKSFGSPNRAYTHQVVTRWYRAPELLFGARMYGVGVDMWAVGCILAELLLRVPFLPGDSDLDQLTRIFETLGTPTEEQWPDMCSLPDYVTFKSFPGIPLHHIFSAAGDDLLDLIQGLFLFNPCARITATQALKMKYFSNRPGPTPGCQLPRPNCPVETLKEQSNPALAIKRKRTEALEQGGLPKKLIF
- Sequence (P51946 whole entry partner): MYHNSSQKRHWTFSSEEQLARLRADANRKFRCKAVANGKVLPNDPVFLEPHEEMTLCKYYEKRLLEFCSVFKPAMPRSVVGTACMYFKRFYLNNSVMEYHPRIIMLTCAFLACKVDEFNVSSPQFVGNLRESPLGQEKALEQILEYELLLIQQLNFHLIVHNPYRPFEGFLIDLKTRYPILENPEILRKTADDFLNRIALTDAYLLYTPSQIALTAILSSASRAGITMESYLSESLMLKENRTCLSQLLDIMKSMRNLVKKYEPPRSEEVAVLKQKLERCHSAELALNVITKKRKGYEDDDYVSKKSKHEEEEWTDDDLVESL
- Sequence (P51948 whole entry partner): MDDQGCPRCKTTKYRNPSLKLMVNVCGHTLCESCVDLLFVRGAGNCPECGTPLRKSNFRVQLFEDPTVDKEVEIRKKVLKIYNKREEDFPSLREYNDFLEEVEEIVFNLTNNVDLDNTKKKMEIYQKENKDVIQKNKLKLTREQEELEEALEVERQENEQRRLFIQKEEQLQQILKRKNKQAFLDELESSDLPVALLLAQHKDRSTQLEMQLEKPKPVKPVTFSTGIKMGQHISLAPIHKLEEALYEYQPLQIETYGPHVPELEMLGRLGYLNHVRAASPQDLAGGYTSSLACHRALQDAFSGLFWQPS
- test: In vitro CDK7 assay, potency of irreversible covalent inhibitors (kinact/KI), coupled PK/LDH ADP readout at 340 nm
- conditions: read-out: CDK7 (20 nM enz.) (kinact, s^−1), 20 nM enzyme
reported.endpoint: kinact (s⁻¹)

[
  {
    "compound": "C=CC(=O)N1CC(N2CC[C@@H](c3cc(C)c4c(c3)Nc3nccc(C5CCOCC5)c3CO4)N(C)CC2)C1 (single isomer, unassigned)",
    "obs.value": "6.71e-05"
  },
  {
    "compound": "C=CC(=O)N1CCC(N2CC(c3cc4c(c(C(F)(F)F)n3)OCc3c(N5CCOCC5)ccnc3N4)C2)CC1",
    "obs.value": "2.79e-05"
  },
  {
    "compound": "C=CC(=O)N1CC(N2CCC(c3cc4c(c(C)n3)O[C@H](C)c3c(C5CCOCC5)ccnc3N4)CC2)C1 (single isomer, unassigned) [Compound 246]",
    "obs.value": "8.4e-05"
  },
  {
    "compound": "C=CC(=O)N1CC[C@@H](N2CC(c3cc4c(c(C5CC5)n3)OCc3c(C5CCOCC5)ccnc3N4)C2)C1 (single isomer, unassigned)",
    "obs.value": "6.94e-05"
  }
]

[A] C=CC(=O)N1CC(N2CCN(c3cc4c(cn3)OCc3c(N5CCOCC5)ccnc3N4)CC2)C1
[B] C=CC(=O)N1CC[C@@H](N2CC(c3cc(C)c4c(c3)Nc3nccc(N5CCOCC5)c3CO4)C2)[C@H](F)C1 (mixture of isomers)
Q: Kindly identify which of A and B has the larger recorded kinact value. Write down the label attached to your selection.
A: A
(A: 8.51e-05 s⁻¹, B: 3.83e-05 s⁻¹)
